A short record of IC50 observed with UniProt:Q02155 follows.
Sequence (Q02155 whole entry): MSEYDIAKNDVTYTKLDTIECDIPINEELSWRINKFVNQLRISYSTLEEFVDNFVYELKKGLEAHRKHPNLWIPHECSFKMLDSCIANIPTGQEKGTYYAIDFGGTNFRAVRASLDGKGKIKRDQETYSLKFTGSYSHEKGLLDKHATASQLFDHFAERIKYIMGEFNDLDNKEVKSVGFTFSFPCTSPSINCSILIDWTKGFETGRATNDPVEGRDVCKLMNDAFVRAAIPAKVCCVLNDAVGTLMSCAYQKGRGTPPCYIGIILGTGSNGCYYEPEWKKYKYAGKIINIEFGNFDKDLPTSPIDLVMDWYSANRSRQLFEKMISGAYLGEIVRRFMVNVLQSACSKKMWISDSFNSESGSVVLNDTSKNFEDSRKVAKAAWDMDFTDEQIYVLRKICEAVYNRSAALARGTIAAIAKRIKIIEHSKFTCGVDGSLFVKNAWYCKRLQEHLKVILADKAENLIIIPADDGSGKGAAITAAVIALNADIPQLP

compound	operator	IC50 / nM
NC(N)=Nc1ccc(-c2ccc(-c3ccc(N=C(N)N)c(Cl)c3)o2)cc1Cl [compound 2]	=	160
CC(C)(C)c1ccc(C(=O)Nc2cc(Cl)c(-c3ccccc3)cc2C(=O)O)cc1 [compound 8, SID144241590]	>	10000
NC(N)=Nc1ccc(-c2ccc(-c3ccc(N=C(N)N)cc3Cl)o2)c(Cl)c1 [compound 1]	=	780

* * *

The reader will find reported pIC50 values listed item by item below.
system: TbHK1 (Trypanosoma brucei)
Sequence (Q38C42 1-471): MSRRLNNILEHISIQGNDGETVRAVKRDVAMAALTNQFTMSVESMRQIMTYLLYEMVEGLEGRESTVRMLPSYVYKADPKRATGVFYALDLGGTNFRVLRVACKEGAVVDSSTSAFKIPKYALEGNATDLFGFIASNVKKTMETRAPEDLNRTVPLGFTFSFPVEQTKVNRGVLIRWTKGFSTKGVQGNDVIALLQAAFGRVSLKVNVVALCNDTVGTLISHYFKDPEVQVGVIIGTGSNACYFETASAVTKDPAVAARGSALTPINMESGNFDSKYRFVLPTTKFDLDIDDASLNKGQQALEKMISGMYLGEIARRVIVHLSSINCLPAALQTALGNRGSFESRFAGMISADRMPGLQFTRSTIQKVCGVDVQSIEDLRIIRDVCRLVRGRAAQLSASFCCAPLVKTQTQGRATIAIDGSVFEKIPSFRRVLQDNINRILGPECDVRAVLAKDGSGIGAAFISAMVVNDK
protocol description: enzyme inhibition assay
Assay type: biochemical
pIC50: −log10 of the molar value.

molecule	system	operator	pIC50
Cc1ccccc1-c1cc(C(=O)O)c(NC(=O)c2ccc(C(C)(C)C)cc2)cc1Cl [compound 18, SID162211086]	TbHK1 (Trypanosoma brucei)	<	5.00
COc1cccc(-c2cc(C(=O)O)c(NC(=O)c3ccc(C(C)(C)C)cc3)cc2Cl)c1 [compound 14, SID162211075]	TbHK1 (Trypanosoma brucei)	=	5.41
CC(C)(C)c1ccc(C(=O)Nc2cc(Cl)c(-c3cccnc3)cc2C(=O)O)cc1 [compound 7, SID162211077]	TbHK1 (Trypanosoma brucei)	<	5.00
CC(C)(C)c1ccc(C(=O)Nc2cc(Cl)c(-c3cccc(F)c3)cc2C(=O)O)cc1 [compound 9, SID162211078]	TbHK1 (Trypanosoma brucei)	<	5.00
CC(C)(C)c1ccc(C(=O)Nc2cc(Cl)c(-c3ccccc3F)cc2C(=O)O)cc1 [compound 10, SID162211083]	TbHK1 (Trypanosoma brucei)	=	5.17
CC(C)(C)c1ccc(C(=O)Nc2cc(Cl)c(-c3ccc(Cl)c(Cl)c3)cc2C(=O)O)cc1 [compound 13, SID162211080]	TbHK1 (Trypanosoma brucei)	<	5.00
CC(C)(C)c1ccc(C(=O)Nc2cc(Cl)c(-c3ccccc3)cc2C(=O)O)cc1 [compound 8, SID144241590]	TbHK1 (Trypanosoma brucei)	=	6.55
CC(C)(C)c1ccc(C(=O)Nc2cc(Cl)c(-c3cccc(Cl)c3)cc2C(=O)O)cc1 [compound 11, SID162211084]	TbHK1 (Trypanosoma brucei)	<	5.00
NC(N)=Nc1ccc(-c2ccc(-c3ccc(N=C(N)N)cc3Cl)o2)c(Cl)c1 [compound 1]	TbHK1 (Trypanosoma brucei)	=	5.54
CC(C)(C)c1ccc(C(=O)Nc2cc(Cl)c(-c3ccccc3O)cc2C(=O)O)cc1 [compound 17, SID162211085]	TbHK1 (Trypanosoma brucei)	=	5.92
CC(C)(C)c1ccc(C(=O)Nc2cc(Cl)c(C3CC3)cc2C(=O)O)cc1 [compound 6, SID162211071]	TbHK1 (Trypanosoma brucei)	=	5.17
CC(C)(C)c1ccc(C(=O)Nc2cc(Cl)c(-c3ccc(O)cc3)cc2C(=O)O)cc1 [compound 16, SID162211079]	TbHK1 (Trypanosoma brucei)	=	5.51
NC(N)=Nc1ccc(-c2ccc(-c3ccc(N=C(N)N)c(Cl)c3)o2)cc1Cl [compound 2]	TbHK1 (Trypanosoma brucei)	=	5.89
COc1ccccc1-c1cc(C(=O)O)c(NC(=O)c2ccc(C(C)(C)C)cc2)cc1Cl [compound 15, SID162211076]	TbHK1 (Trypanosoma brucei)	=	5.03
CC(C)(C)c1ccc(C(=O)Nc2cc(Cl)c(-c3ccc(F)c(Cl)c3)cc2C(=O)O)cc1 [compound 12, SID162211073]	TbHK1 (Trypanosoma brucei)	<	5.00
